# Tested on: 621-102 (TSC2-deficient);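 further: immortalized renal angiomyolipoma cells stably carrying empty vector or TSC2, dosed in 384-well plates in DMEM, viability normalized to vehicle-treated wells within each plate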
# assay remarks: relative viability vs DMSO; higher = less cytotoxic
# cond: 10 µM; serum: 10% FBS; 72 h
Binarize relative viability at 90%; below is 1 (yes), at or above is 0 (no).

compound	target entity	discrete label
Cc1cc(C(=O)NOCCO)c(Nc2ccc(I)cc2F)n(C)c1=O	621-102 (TSC2-deficient)	1 (yes)
CCN1CCN(Cc2ccc(-c3cc4c(N[C@H](C)c5ccccc5)ncnc4[nH]3)cc2)CC1	621-102 (TSC2-deficient)	1 (yes)
O=c1oc2cc(O)ccc2s1	621-102 (TSC2-deficient)	0 (no)
N#CC(=C(/N)Sc1ccccc1N)/C(C#N)=C(\N)Sc1ccccc1N	621-102 (TSC2-deficient)	0 (no)
Nc1nc(F)nc2c1ncn2[C@@H]1O[C@H](COP(=O)(O)O)[C@@H](O)[C@@H]1O [Fludarabine Phosphate]	621-102 (TSC2-deficient)	0 (no)
CNC(=C[N+](=O)[O-])NCCSCc1csc(CN(C)C)n1	621-102 (TSC2-deficient)	0 (no)
Nc1ncnc2c1c(-c1cccc(OCc3ccccc3)c1)cn2C1CC(CN2CCCC2)C1 (stereo unspecified)	621-102 (TSC2-deficient)	1 (yes)
CO[C@H]1C[C@@H]2CC[C@@H](C)[C@@](O)(O2)C(=O)C(=O)N2CCCC[C@H]2C(=O)O[C@H]([C@H](C)C[C@@H]2CC[C@@H](OC(=O)C(C)(CO)CO)[C@H](OC)C2)CC(=O)[C@H](C)/C=C(\C)[C@@H](O)[C@@H](OC)C(=O)[C@H](C)C[C@H](C)/C=C/C=C/C=C/1C	621-102 (TSC2-deficient)	1 (yes)
CN(C)C(=O)Oc1cccc([N+](C)(C)C)c1 [Neostigmine bromide (Prostigmin)]	621-102 (TSC2-deficient)	0 (no)
Cc1cnc(NC(=O)Nc2cc(Br)c(C)cc2OC[C@@H]2CNCCO2)cn1	621-102 (TSC2-deficient)	1 (yes)
Nc1cc(C(F)(F)F)c(-c2cc(N3CCOCC3)nc(N3CCOCC3)n2)cn1	621-102 (TSC2-deficient)	1 (yes)

The origin of these recorded values is the supplement of paper PMC8960247.
